tested on: M14; experiment: NCI tumour cell line growth inhibition, 48 h
The source made the active and inactive calls. Cut-off read from the data, not from the text of the source: active = GI50 up to about 1.1 µM and inactive = higher.
metric: GI50

- molecule: "COc1cc(/C=C2\\N=C(c3ccccc3)N(c3cc4cc(Sc5ccccc5)ccc4[nH]3)C2=O)ccc1O"
  assaySystem: "M14"
  measuredValue: "3.65 µM (inactive)"
- molecule: "CCN(CC)C(=O)Cn1c(-c2ccccc2)cc2ccccc21"
  assaySystem: "M14"
  measuredValue: "87.3 µM (inactive)"
- molecule: "CC1=C(O)C(=O)C2C(=O)C1C(C)C2c1ccc(Cl)cc1 (stereo not given)"
  assaySystem: "M14"
  measuredValue: "> 100 µM (inactive)"
- molecule: "Nc1nc(Nc2ccccc2)sc1C(=O)c1ccc(Cl)cc1"
  assaySystem: "M14"
  measuredValue: "> 100 µM (inactive)"
- molecule: "C1CCC(OC2CSC2)OC1 (stereo not given)"
  assaySystem: "M14"
  measuredValue: "> 100 µM (inactive)"

Problem: M14 / GI50 / Cc1cc(Cl)nc(Nc2nc3ccccc3[nH]2)n1 : value?
Solution: > 100 µM (inactive)

Problem: Param readout= GI50; system= M14; entry= [N-]=[N+]=Nc1c([N+](=O)[O-])c(=O)n(-c2ccccc2)c2ccccc12 ; returns value.
Solution: 27.2 µM (inactive)

Problem: Request - read-out GI50 | tested on M14 | molecule O=S(=O)(O)c1ccc2c(/N=N/c3ccc(S(=O)(=O)O)c4ccccc34)c(O)c(S(=O)(=O)O)cc2c1
Solution: > 100 µM (inactive)

Problem: Missing value: GI50, M14, entry O=c1c2ccccc2[se]n1-c1cccnc1 . Fill in?
Solution: 30.7 µM (inactive)

Problem: Form field - read-out: GI50; system: M14; submitted item: COC(=O)[C@@]1(C(C)CC(=O)O)CCCCC1=O (stereo not given in full)
Solution: > 100 µM (inactive)

Problem: Any idea what GI50 came out for CC(=O)Nc1ccc2cc(C)c(O)nc2n1 on M14?
Solution: > 100 µM (inactive)

Problem: // fetch M14 GI50 for C=C(Br)C/N=C/N(C)C
Solution: > 100 µM (inactive)

Problem: Under M14: GI50 value of C=C1C[C@@H](O)[C@@H](Br)C(C)(C)[C@@]12C=CC(O)(CBr)CC2 (stereo not given in full) ?
Solution: > 100 µM (inactive)

Problem: What reported GI50 corresponds to COc1ccc(/C=C2\NC(=S)N(CN3CCCCC3)C2=O)cc1 on M14?
Solution: 50.7 µM (inactive)

Problem: Test system M14; read-out GI50; what value for C=Cc1ccccc1C1(O)C=CC(OC)(OC)C=C1 ?
Solution: 5.96 µM (inactive)

----------
tested on: OVCAR-5; test: NCI tumour cell line growth inhibition, 48 h
Calls of active or inactive are those of the source. Cut-off read from the data, not from the text of the source: active = GI50 up to about 1.1 µM and inactive = higher.
// allowed return values: label 1 (active), label 0 (inactive)

Problem: # fetch the recorded call for COc1ccc2oc(=N)c(C(=O)Nc3cccc4ccccc34)cc2c1 here
Solution: label 0

Problem: Could you kindly confirm the outcome this assay logged for CCOC(=O)C(SCCO)C(C(=O)OCC)n1ccc(N)nc1=O (stereo unspecified) ?
Solution: label 0

Problem: GET /call?item= Cc1cccc(NC(Nc2cccc(C)c2)=C(C(Cl)=C(Cl)Cl)[N+](=O)[O-])c1 returns the recorded outcome of this test.
Solution: label 0

Problem: Answer briefly: the call reported for O=C(CN1CCOCC1)c1ccc2c(c1)oc(=O)n2CCN1CCOCC1 in this assay.
Solution: label 0

Problem: How did this test come out for CC1=NNC(=O)C1C1CC(c2c[nH]c3ccccc23)=NNC1=O (stereo unspecified) ?
Solution: label 0

Problem: Per the assay record, what outcome was assigned to COc1cccc2c1C(=O)c1c(O)c3c(c(O)c1C2=O)C[C@@](O)(C(C)=O)C[C@@H]3OC1OC(C)C(O)C(N)C1Br (stereo partly specified) ?
Solution: label 1

Problem: Which outcome was entered for the compound CSCCCNC(=O)[C@H](CSC)NC(=O)c1csc(CCNC(=O)[C@@H](NSc2ccccc2[N+](=O)[O-])C(C)O)n1 (stereo partly specified) in this test?
Solution: label 0

Recorded values, source ChEMBL document CHEMBL1201862.
